targetSystem: T1, recombinant human activated Factor VII (FVIIa) (human, UniProt P08709 61-212; P08709 213-466, ten glutamate residues of the Gla domain may be gamma-carboxylated)
T1 construct: chains tethered by a disulfide bond; also called Factor VIIa; rFVIIa
T1 sequence 1: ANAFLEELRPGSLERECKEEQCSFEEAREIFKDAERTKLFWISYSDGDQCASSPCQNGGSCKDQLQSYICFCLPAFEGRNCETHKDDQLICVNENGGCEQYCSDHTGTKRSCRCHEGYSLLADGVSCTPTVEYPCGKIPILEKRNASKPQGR
T1 sequence 2: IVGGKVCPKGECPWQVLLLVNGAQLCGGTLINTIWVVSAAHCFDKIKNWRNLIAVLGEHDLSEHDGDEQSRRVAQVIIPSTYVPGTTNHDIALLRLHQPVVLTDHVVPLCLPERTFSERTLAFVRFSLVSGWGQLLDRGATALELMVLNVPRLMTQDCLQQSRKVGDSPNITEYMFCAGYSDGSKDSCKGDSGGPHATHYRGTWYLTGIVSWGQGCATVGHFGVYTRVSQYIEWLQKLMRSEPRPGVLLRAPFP
assayComment: BLI (Fortebio)
List of Kd values.
Hi! Could you send only the number? It should be in nM, unit omitted.

Below, each entry is followed by its recorded Kd result.
binder="VH SEQ ID NO 538 / VL SEQ ID NO 470 (antibody, IgG4, V domains shown, humanized 11F2; IgG4 S228P/kappa) VH: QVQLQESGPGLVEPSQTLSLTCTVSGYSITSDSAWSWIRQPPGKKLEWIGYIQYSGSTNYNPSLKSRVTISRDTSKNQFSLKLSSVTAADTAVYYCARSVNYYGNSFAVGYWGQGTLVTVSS VL: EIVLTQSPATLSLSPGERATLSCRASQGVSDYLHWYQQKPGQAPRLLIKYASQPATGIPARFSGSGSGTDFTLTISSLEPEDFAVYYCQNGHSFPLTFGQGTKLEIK" experimentalvalue=1
binder="VH SEQ ID NO 634 / VL SEQ ID NO 502 (antibody, IgG4, V domains shown, humanized 11F2; IgG4 S228P/kappa) VH: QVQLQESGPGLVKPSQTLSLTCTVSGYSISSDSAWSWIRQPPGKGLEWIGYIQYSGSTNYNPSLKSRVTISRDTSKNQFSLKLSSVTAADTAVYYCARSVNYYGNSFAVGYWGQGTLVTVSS VL: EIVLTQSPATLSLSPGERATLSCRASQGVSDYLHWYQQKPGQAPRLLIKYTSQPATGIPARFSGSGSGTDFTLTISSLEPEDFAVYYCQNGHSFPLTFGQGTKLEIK" experimentalvalue=1.3
binder="VH SEQ ID NO 538 / VL SEQ ID NO 406 (antibody, IgG4, V domains shown, humanized 11F2; IgG4 S228P/kappa) VH: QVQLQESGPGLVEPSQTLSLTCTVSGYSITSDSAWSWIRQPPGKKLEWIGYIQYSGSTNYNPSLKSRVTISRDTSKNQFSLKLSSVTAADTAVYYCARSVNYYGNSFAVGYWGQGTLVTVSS VL: EIVLTQSPATLSLSPGERATLSCRASQGVSDYLAWYQQKPGQAPRLLIKYASQPATGIPARFSGSGSGTDFTLTISSLEPEDFAVYYCQNGHSFPLTFGAGTKLEIK" experimentalvalue=6.1
binder="VH SEQ ID NO 522 / VL SEQ ID NO 454 (antibody, IgG4, V domains shown, humanized 11F2; IgG4 S228P/kappa) VH: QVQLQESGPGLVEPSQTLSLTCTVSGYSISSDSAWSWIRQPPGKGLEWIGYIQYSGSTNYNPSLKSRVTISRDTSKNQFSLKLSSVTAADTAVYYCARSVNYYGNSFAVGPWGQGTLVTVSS VL: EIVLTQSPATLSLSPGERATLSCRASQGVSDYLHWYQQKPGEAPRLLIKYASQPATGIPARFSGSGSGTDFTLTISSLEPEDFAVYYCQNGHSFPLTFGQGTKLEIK" experimentalvalue=1

Quick one: Kd for VH SEQ ID NO 610 / VL SEQ ID NO 494 (antibody, IgG4, V domains shown, humanized 11F2; IgG4 S228P/kappa) VH: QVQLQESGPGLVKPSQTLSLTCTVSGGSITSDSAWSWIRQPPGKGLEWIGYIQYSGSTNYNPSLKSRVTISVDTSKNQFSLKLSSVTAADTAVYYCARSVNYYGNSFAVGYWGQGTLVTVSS VL: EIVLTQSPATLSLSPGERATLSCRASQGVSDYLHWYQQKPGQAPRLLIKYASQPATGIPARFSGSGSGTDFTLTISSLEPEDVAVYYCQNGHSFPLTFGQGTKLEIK ?
17

Ok, now VH SEQ ID NO 634 / VL SEQ ID NO 486 (antibody, IgG4, V domains shown, humanized 11F2; IgG4 S228P/kappa) VH: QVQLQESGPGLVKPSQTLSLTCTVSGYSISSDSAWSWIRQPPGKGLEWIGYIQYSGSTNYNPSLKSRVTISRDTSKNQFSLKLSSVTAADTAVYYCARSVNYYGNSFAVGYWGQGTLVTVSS VL: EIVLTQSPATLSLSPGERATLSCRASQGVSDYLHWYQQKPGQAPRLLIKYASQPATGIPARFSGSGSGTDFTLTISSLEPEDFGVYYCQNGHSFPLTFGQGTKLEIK
1.4

Ok, now VH SEQ ID NO 570 / VL SEQ ID NO 438 (antibody, IgG4, V domains shown, humanized 11F2; IgG4 S228P/kappa) VH: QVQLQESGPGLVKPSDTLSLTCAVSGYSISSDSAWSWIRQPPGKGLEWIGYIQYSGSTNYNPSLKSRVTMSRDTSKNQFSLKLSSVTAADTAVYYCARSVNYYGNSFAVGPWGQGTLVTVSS VL: EIVLTQSPATLSLSPGERATLSCRASQGVSDYLAWYQQKPGQAPRLLIKYASQPATGIPARFSGSGSGTDFTLTISSLEPEDVAVYYCQNGHSFPLTFGQGTKLEIK
210

Ok, now VH SEQ ID NO 642 / VL SEQ ID NO 462 (antibody, IgG4, V domains shown, humanized 11F2; IgG4 S228P/kappa) VH: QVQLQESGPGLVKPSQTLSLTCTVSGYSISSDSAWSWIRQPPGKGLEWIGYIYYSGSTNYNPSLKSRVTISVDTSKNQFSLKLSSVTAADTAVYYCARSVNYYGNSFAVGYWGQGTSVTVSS VL: EIVLTQSPATLSLSPGERATLSCRASQGVSDYLHWYQQKPGQAPRLLIKYASQPATGIPARFSGSGSGTDFTLTISSLEPEDFAVYYCQNGHSFPLTFGAGTKLEIK
52

Ok, now VH SEQ ID NO 314 / VL SEQ ID NO 502 (antibody, IgG4, V domains shown, humanized 11F2; IgG4 S228P/kappa) VH: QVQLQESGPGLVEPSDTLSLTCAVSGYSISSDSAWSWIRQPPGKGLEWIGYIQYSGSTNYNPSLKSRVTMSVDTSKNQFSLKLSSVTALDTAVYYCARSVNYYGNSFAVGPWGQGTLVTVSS VL: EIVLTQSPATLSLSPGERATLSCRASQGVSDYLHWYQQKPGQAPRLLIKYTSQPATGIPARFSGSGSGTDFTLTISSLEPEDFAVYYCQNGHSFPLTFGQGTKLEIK
25

Ok, now VH SEQ ID NO 618 / VL SEQ ID NO 446 (antibody, IgG4, V domains shown, humanized 11F2; IgG4 S228P/kappa) VH: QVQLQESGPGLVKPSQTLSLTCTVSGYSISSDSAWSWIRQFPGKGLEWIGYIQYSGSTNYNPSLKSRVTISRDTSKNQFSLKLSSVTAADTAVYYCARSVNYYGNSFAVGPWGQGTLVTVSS VL: EIVLTQSPATLSLSPGERATLSCRASQGVSDYLAWYQQKPGQAPRLLIKYTSQPATGIPARFSGSGSGTDFTLTISSLEPEDFAVYYCQNGHSFPLTFGQGTKLEIK
200
